These data points were gathered from the RNAGym collection of RNA variant scans (doi:10.1073/pnas.2313332121).

B1: TPR 5TU (parent)
chain: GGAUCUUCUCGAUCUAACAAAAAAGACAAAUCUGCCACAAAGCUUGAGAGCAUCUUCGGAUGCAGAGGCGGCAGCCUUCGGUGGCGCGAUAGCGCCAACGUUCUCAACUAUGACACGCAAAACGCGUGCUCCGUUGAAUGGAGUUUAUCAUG

Variants of: B1
Assay: polymerase ribozyme fitness, log enrichment relative to wild type (log ratio); higher = more active; in vitro selection for triplet polymerase activity
Variants at the floor of the assay were thinned out.
quantity: polymerase ribozyme fitness (log ratio)

U33A C43U A60U C93A C96U U151C G152A
≤ -4.2
A37G A40U A115G A142U
≤ -4.2
C85G C93A
≤ -4.2
U6A A20U C27U G46A C87A
≤ -4.2
A52C G67A G74U G86U C93U A115G
≤ -4.2
C10A U53A C85A C96G G100A U127C U146A
≤ -4.2
